Experimental System: T1, human myostatin (mature, recombinant; R&D Systems) (human, UniProt O14793 267-375)
T1 sequence: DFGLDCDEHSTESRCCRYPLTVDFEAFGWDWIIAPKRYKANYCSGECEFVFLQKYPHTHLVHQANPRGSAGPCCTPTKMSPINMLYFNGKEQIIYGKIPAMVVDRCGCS
Test Protocol: cell-based or functional assay
Recorded Metric: ARE-luciferase IC50 (nM)

a. 3008_G01 (designed binder) MGVSDVPRDLEVVAATPTSLLISWSLPGPGHFHYYRITYGETGGNSPVQEFTVPGRGVTATISGLKPGVDYTITVYAVTVTANQPIIYKPISINYRTEIDKPSQHHHHHH
b. 2987_D05 (designed binder) MGVSDVPRDLEVVAATPTSLLISWSLPHAGHAHYYRITYGETGGNSPVQEFTVPGRGVTATISGLKPGVDYTITVYAVTLTRSKIIHYMPISINYRTEIDKPSQHHHHHH
Lab note: check whether a or b shows the higher recorded ARE-luciferase IC50. // return label of chosen record
b
